These entries and their values trace back to patent US8927500B2.

# target: MDM2 (Homo sapiens)
# Sequence (Q00987 1-125): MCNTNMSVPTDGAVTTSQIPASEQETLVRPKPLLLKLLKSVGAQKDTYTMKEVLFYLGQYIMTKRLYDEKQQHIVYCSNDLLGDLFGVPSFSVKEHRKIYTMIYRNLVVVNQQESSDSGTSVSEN
# method summary: Competitive fluorescence polarization assay for MDM2
# Format: binding
# test settings: competitive FP assay, MDM2; read-out: Ki (MDM2)
pKi: −log10 of the molar value. Where a SMILES comes first, the peptide text is derived from it. Bridges are numbered along the chain shown (N, C = ends). [ ]: non-standard residue; d: D form. R8 = C=CCCCCCC[C@@](C)(N)C(=O)O; S5 = C=CCCC[C@](C)(N)C(=O)O
assay metric: pKi

# compound, experimental value
measured = [
    ("CC[C@H](C)[C@H](NC(=O)[C@H](C)NC(=O)[C@H](C)NC(=O)[C@]1(C)CCCC=CCCCCCC[C@@](C)(NC(=O)[C@H](Cc2ccccc2)NC(=O)[C@@H](NC(=O)[C@H](CC(C)C)NC(=O)CN(C)C)[C@@H](C)O)C(=O)N[C@@H](CCC(=O)O)C(=O)N[C@@H](Cc2ccc(C(=O)O)cc2)C(=O)N[C@@H](Cc2c[nH]c3ccccc23)C(=O)N[C@@H](C)C(=O)N[C@@H](CCC(N)=O)C(=O)N[C@@H](CC2CCC2)C(=O)N1)C(=O)N[C@H](C)C(N)=O (single isomer, unassigned) [compound 441]", "> 8.00"),
]

Qu. What value of pKi has been recorded for this entry: CC(=O)N[C@@H](CCC(=O)O)C(=O)N[C@H](C(=O)N[C@@H](Cc1ccccc1)C(=O)N[C@]1(C)CCCCCCC=CCCC[C@@](C)(C(=O)N[C@@H](CO)C(=O)N[C@@H](CO)C(=O)N[C@H](C)C(N)=O)NC(=O)[C@H](CC(C)C)NC(=O)[C@H](CCC(N)=O)NC(=O)[C@H](C)NC(=O)[C@H](Cc2c[nH]c3ccccc23)NC(=O)[C@H](Cc2ccc(O)cc2)NC(=O)[C@H](C(C)C)NC1=O)[C@@H](C)O [compound 134] (Ac-ETF[R8]VYWAQL[S5]SS[dA]-NH2; staple 4-11)
Ans. > 8.00

###

# target: MDM2 (Homo sapiens)
# method summary: Competitive fluorescence polarization assay for MDM2
# Format: binding
# test settings: competitive FP assay, MDM2; read-out: Ki (MDM2)
pKi: −log10 of the molar value. Where a SMILES comes first, the peptide text is derived from it. Bridges are numbered along the chain shown (N, C = ends). [ ]: non-standard residue; d: D form. R8 = C=CCCCCCC[C@@](C)(N)C(=O)O; Cba = N[C@@H](CC1CCC1)C(=O)O; S5 = C=CCCC[C@](C)(N)C(=O)O
assay metric: pKi

# molecule, pKi
records = [
    ("CCCC[C@H](NC(=O)CN(C)C(=O)[C@H](C)NC(=O)[C@]1(C)CCCC=CCCCCCC[C@@](C)(NC(=O)[C@H](Cc2ccccc2)NC(=O)[C@@H](NC(=O)[C@H](CC(C)C)NC(C)=O)[C@@H](C)O)C(=O)N[C@@H](C)C(=O)N[C@@H](Cc2ccc(O)cc2)C(=O)N[C@@H](Cc2c[nH]c3ccccc23)C(=O)N[C@@H](C)C(=O)N[C@@H](CCC(N)=O)C(=O)N[C@@H](CC(C)C)C(=O)N1)C(=O)N[C@@H](C)C(N)=O (single isomer, unassigned)", "> 8.00"),
]

// next item, pKi requested
Qu. Query: pKi; subject: CC(=O)N[C@@H](CC(C)C)C(=O)N[C@H](C(=O)N[C@@H](Cc1ccccc1)C(=O)N[C@]1(C)CCCCCCC=CCCC[C@@](C)(C(=O)N[C@@H](CO)C(=O)N[C@@H](C)C(=O)N[C@@H](CCCNC(=N)N)C(N)=O)NC(=O)[C@H](CC2CCC2)NC(=O)[C@H](CCC(N)=O)NC(=O)[C@H](C)NC(=O)[C@H](Cc2c[nH]c3ccccc23)NC(=O)[C@H](Cc2ccc(O)cc2)NC(=O)[C@H](CCC(=O)O)NC1=O)[C@@H](C)O [compound 366] (Ac-LTF[R8]EYWAQ[Cba][S5]SAR-NH2; staple 4-11)
Ans. > 8.00
